SUBJECT_OF_TEST: cyclophilin D (Cyp D) (Homo sapiens, UniProt P30405)
Sequence (P30405 30-207): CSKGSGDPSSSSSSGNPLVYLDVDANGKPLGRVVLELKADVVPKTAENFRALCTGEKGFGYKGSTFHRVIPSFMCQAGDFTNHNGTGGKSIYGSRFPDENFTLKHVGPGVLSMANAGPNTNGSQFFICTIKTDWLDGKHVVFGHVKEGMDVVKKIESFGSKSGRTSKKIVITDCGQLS
TEST_NAME: Protease-free PPIase assay, cyclophilin D
Format: biochemical
Numbered stars: 1 amine (or outer) side, 2 acyl side, 3 side chain; on linkers, the order of the positions; unused ones are H or OH. Square brackets hold non-standard residues; d marks the D form. Peptide text beside a SMILES is read from it. X1 = Cc1cccc(CCC[C@@H](C)[C@@H](O)[C@H](C(=O)[*:2])N(C)[*:1])n1; X27 = C[C@H](CCN(C)c1ccccn1)[C@@H](O)[C@H](C(=O)[*:2])N(C)[*:1]; d(aThr) = C[C@@H](O)[C@@H](N)C(=O)O; NMeL = CN[C@@H](CC(C)C)C(=O)O; dNMeL = CN[C@H](CC(C)C)C(=O)O; dNMeV = CN[C@@H](C(=O)O)C(C)C; Hiv = CC(C)[C@H](O)C(=O)O; dAbu = CC[C@@H](N)C(=O)O; Sar = CNCC(=O)O
MEASUREMENT_TYPE: Ki

Please review the entries below; each comes with its answer.
CC(C)C[C@@H]1C(=O)N[C@H](CC(C)C)C(=O)N(C)[C@H](C(C)C)C(=O)N(C)[C@H]([C@H](O)[C@H](C)CCN(C)c2ccccn2)C(=O)N[C@H]([C@@H](C)O)C(=O)N(C)CC(=O)N(C)[C@@H](CC(C)C)C(=O)N[C@H](CC(C)C)C(=O)N(C)[C@H](CC(C)C)C(=O)N[C@H](C)C(=O)O[C@@H](C(C)C)C(=O)N1C [Example 28] (cyclo([Hiv][dNMeL][dL][dNMeV][X27][d(aThr)][Sar][NMeL][dL][dNMeL][dA]))	1 to 25 nM
CC[C@H]1NC(=O)[C@@H]([C@H](O)[C@H](C)CCCc2cccc(C)n2)N(C)C(=O)[C@@H](C(C)C)N(C)C(=O)[C@@H](CC(C)C)NC(=O)[C@@H](CC(C)C)N(C)C(=O)[C@H](C(C)C)OC(=O)[C@@H](C)NC(=O)[C@@H](CC(C)C)N(C)C(=O)[C@@H](CC(C)C)NC(=O)[C@H](CC(C)C)N(C)C(=O)CN(C)C1=O [Example 21] (cyclo([Hiv][dNMeL][dL][dNMeV][X1][dAbu][Sar][NMeL][dL][dNMeL][dA]))	1 to 25 nM

input: Specify measured Ki for Cc1cccc(CCC[C@@H](C)[C@@H](O)[C@@H]2C(=O)N[C@H]([C@@H](C)O)C(=O)N(C)CC(=O)N(C)[C@@H](CC(C)C)C(=O)N[C@H](CC(C)C)C(=O)N(C)[C@H](CC(C)C)C(=O)N[C@H](C)C(=O)O[C@@H](C(C)C)C(=O)N(C)[C@H](CC(C)C)C(=O)N[C@H](CC(C)C)C(=O)N(C)[C@H](C(C)C)C(=O)N2C)n1 [Example 17] (cyclo([Hiv][dNMeL][dL][dNMeV][X1][d(aThr)][Sar][NMeL][dL][dNMeL][dA])) .
output: 1 to 25 nM
